Tested on: HOP-62 NSCLC
Test: NCI tumour cell line growth inhibition, 48 h; in the data active = GI50 below about 0.43 µM; inactive = the rest
Use one of these outcomes when replying: active, inactive

*Q* Tell me the assay call for CO[C@@H]1/C=C(C)/C=C/[C@@H](C)/C=C(\C)C(=O)OC(/C(C)=C/C=C(\C)CNC(=O)[C@H](CO)NC=O)[C@@H](C)/C=C/C=C/[C@H](OC)CC/C=C(C)/C=C/C1 (stereo partly drawn) please.
*A* active

*Q* Tell me the recorded outcome of this test for O=C(N/N=C/c1ccccc1O)C(=O)Nc1ccc(F)cc1 .
*A* inactive

*Q* What call does the record list for CC(C)NC(=O)OCc1c(COC(=O)NC(C)C)c(-c2ccc(Cl)cc2)n2c1CCC2 ?
*A* inactive

*Q* Please indicate how the test categorized CC(=O)OCC1OC(OC2CC3C(C)(C)C(O)CC[C@]3(C)C3CCC45CC4(CC[C@H]5C(C)CC(O)C4OC4(C)C)[C@]23C)C(O)C(O)C1O (stereo partly drawn) .
*A* inactive

*Q* So what was the verdict on O=C(c1ccco1)c1c(C(F)(F)F)n([O-])c2ccccc2[n+]1=O in this test?
*A* inactive

*Q* Lab log entry: COc1ccc(-n2c3c(c4c(CN5CCOCC5)c(O)ccc42)CCc2ccccc2C3=O)cc1 — outcome as called in the assay?
*A* inactive

*Q* Record lookup: outcome of this test for CCN1c2ccccc2C(Cl)(c2ccc(N(C)C)cc2)c2ccccc21 ?
*A* inactive

*Q* Recorded test call requested for O=C(Nc1ccccc1O)c1ccc(Oc2cccc(C(=O)Nc3ccccc3O)c2)cc1
*A* inactive

*Q* Which result was noted for this compound in the test: Cc1ccc(-c2cc(C3=CC(=O)C=CC3=O)n(-c3ccc(S(N)(=O)=O)cc3)n2)cc1
*A* inactive

*Q* Given COc1cccc2c1C(=O)c1c(O)c3c(c(O)c1C2=O)C[C@@](O)(C(=O)CO)C[C@@H]3OC1C[C@H](N)[C@H](O)[C@H](C)O1 (stereo partly drawn) , state the outcome it received in this test.
*A* active

*Q* Returns: the outcome recorded for COc1ccccc1C#Cc1ccccc1C#CCCCCCC#Cc1ccccc1C#Cc1ccccc1OC in this assay.
*A* inactive

*Q* Given C=C1C(=O)O[C@H]2[C@H]1CC/C(COC(=O)CSCC(=O)OC/C1=C/CC[C@@]3(C)O[C@H]3[C@H]3OC(=O)C(=C)[C@@H]3CC1)=C\CC[C@@]1(C)O[C@@H]21 , state the outcome it received in this test.
*A* inactive

*Q* Hi team, can someone confirm the assay call for C=CC(=O)N[C@H]1CCOC[C@H]1Nc1ncc2cc(-c3c(Cl)c(OC)cc(OC)c3Cl)ccc2n1 ?
*A* inactive

*Q* State the result this test recorded for N#CC1=C(N)NC(=O)NC12Nc1ccccc1S2 (stereo not drawn) .
*A* inactive

*Q* Recorded test outcome, item O=C(O)c1ccc(N/C=C2\C(=O)c3ccccc3OC2O)cc1O (stereo not drawn)
*A* inactive

*Q* Can you look up the reported call for COc1ccc(-c2ccc(-c3ccc(-c4ccc(C(=N)N)cc4)s3)s2)cc1OC for me?
*A* inactive

*Q* Assay result, entry O=C(Nc1ccc(Cl)cc1)c1cc(-c2ccc(Cl)cc2)c2sc(=O)[nH]c2n1 — outcome?
*A* inactive

*Q* Please let me know the test result on file for C=CCC(N[C@H](CO)c1ccccc1)c1cn(C(=O)OCC)c2ccccc12 (stereo partly drawn) .
*A* inactive

*Q* Call for entry C#Cc1c(C(N)=O)ncn1C1OC(COP(=O)(OCc2ccc([N+](=O)[O-])o2)N(C)CCCCCl)C(O)C1O (stereo not drawn) :
*A* inactive

*Q* Could you kindly confirm the outcome this assay logged for S=C1Nc2ccc(Cl)cc2C2(c3ccccc3)N3CCN=C3NN12 (stereo not drawn) ?
*A* inactive

*Q* I would be grateful if you could indicate the recorded call for COc1ccc(Cl)cc1NC(=O)C(Br)C(Br)C(=O)O (stereo not drawn) .
*A* inactive

*Q* Hi team, can someone confirm the assay call for O=C(CCl)N1c2ccccc2Sc2ccc3ccccc3c21 ?
*A* inactive

*Q* I'd appreciate the recorded outcome for O=C(O)c1cc2cc(OCc3ccccc3)c(OCc3ccccc3)cc2[nH]1 from this test.
*A* inactive
